- Test system: Inhibin beta A chain (activin A)
- Assay Name: small molecules binding activin A – biochemical, small-molecule microarray, 635 nm fluorescence scan, primary screen (AID 1107);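 further: mouse activin A protein probed at 4.33 µg/mL on printed slides; score merges bound-protein fluorescence near 667 nm with spot signal-to-noise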
- Assay Context: INHBA, higher = more signal
# if value of composite z-score reaches 0.3, tag YES; if it stays below, tag NO

Compound	Target Or Test System	Group
CC(=O)OCC1C2CC[C@H]3C(OCc4ccc(F)cc4C(F)(F)F)OC[C@]4(C)[C@H]3C2=C(CN4C(=O)OC(C)(C)C)[C@H](C)C1COC(C)=O (stereo partly drawn)	Inhibin beta A chain (activin A)	YES
CC(C)=CCCC(C)=CC(O)C1C=CC2C(=O)NC(=O)C2N1Nc1ccc(Cl)cc1Cl (stereo not drawn)	Inhibin beta A chain (activin A)	YES
CC(C)NC(=O)[C@@]1(C)c2ccccc2C(=O)N(Cc2ccccc2)[C@H]1c1ccc(CO)cc1	Inhibin beta A chain (activin A)	NO
CCCCC(O)C1C=CC2C(=O)N(c3ccccc3)C(=O)C2N1Nc1ccccc1 (stereo not drawn)	Inhibin beta A chain (activin A)	YES
CN(C)CCCC[C@@H]1NC(=O)[C@@H]2C[C@H](C(=O)NCCCCCN)[C@H](c3cccc(OCCO)c3)N2C1=O	Inhibin beta A chain (activin A)	NO
O=C1C[C@]2(c3ccc([N+](=O)[O-])cc3)C(=O)N(C3CC3)c3cc(CO)ccc3[C@H]2N1C1CCCCC1	Inhibin beta A chain (activin A)	YES
CN(C)CCCC[C@@H]1NC(=O)[C@@H]2C[C@H](C(=O)NCCCCCCNC(=O)CS)[C@H](c3ccc(O)cc3)N2C1=O	Inhibin beta A chain (activin A)	NO
COCCCNC(=O)[C@@]1(CCC(=O)OC(C)(C)C)COC(c2ccc(OCCCO)cc2)=N1	Inhibin beta A chain (activin A)	YES

Measured values drawn from PubChem BioAssay for this set.
